System: RARa homodimer (NR concentration 270 nM)
methodSummary: PBM binding z-score (relative to random genomic background probes); higher = stronger binding; sequences stand for … in GC…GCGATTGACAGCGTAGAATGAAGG
Returns True if the recorded PBM binding z-score is greater than or equal to 1, and False otherwise.

Would you say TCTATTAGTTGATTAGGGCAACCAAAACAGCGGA shows PBM binding z-score at minimum 1? True

Could you verify whether the entry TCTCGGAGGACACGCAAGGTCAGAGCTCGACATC shows PBM binding z-score of no less than 1? False

Hi, just wondering whether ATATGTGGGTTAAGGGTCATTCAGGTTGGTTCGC shows PBM binding z-score of 1 or higher. True

Hi team, for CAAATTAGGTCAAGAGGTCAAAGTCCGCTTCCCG , is the recorded PBM binding z-score at or above 1? True

Quick check: does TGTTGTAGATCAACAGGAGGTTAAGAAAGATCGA have PBM binding z-score greater than or equal to 1? False

Say whether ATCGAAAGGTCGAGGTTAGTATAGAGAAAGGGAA shows PBM binding z-score of 1 or more. True

Hi, just wondering whether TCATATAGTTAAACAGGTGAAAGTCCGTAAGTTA shows PBM binding z-score of 1 or higher. True

----------
Tested on: THRa homodimer (NR concentration 90 nM)
methodSummary: PBM binding z-score (relative to random genomic background probes); higher = stronger binding; sequences stand for … in GC…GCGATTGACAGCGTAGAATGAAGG
measuredProperty: PBM binding z-score
Hey, just send me the number, nothing else.

Look up PBM binding z-score: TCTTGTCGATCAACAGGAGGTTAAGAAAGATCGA -0.736

Quick one: PBM binding z-score for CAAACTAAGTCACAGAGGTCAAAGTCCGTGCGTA ? 1.87

GET /values?readout=PBM binding z-score&item= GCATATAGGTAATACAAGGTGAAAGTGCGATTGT 1.19

Form field: reported PBM binding z-score of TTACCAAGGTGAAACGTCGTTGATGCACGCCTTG 0.421

I am curious: what PBM binding z-score value has been reported for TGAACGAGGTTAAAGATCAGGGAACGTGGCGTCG ? -0.132

Could you share which PBM binding z-score value was measured for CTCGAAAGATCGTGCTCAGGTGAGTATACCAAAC ? 0.584

Form field: reported PBM binding z-score of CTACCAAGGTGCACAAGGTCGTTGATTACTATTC 1.21

May I ask what PBM binding z-score has been recorded for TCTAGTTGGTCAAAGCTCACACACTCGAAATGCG ? 0.269

Which PBM binding z-score is listed for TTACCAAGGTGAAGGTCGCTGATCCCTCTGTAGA ? 0.612

Fill in the blank: the reported PBM binding z-score of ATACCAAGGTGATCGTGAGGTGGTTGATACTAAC is ____. 0.979

Entry under review: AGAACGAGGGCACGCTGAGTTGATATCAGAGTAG . Reported PBM binding z-score? -0.269

State the recorded PBM binding z-score for this entry: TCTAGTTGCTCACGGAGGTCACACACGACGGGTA 2.22

May I ask what PBM binding z-score has been recorded for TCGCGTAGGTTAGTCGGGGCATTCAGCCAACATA ? -0.0265

Query: PBM binding z-score; subject: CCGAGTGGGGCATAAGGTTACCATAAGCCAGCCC 1.09

Please report the recorded PBM binding z-score for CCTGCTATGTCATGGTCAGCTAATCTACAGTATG . -0.368

Please give the measured PBM binding z-score for this sequence: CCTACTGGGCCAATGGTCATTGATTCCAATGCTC -0.561

Which PBM binding z-score is reported for this sequence? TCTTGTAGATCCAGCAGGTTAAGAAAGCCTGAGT -0.236

For the sequence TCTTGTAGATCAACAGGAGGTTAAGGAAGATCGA , what PBM binding z-score is on record? -0.373

Given the entry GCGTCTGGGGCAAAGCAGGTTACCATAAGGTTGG , report its measured PBM binding z-score. 0.0693

Quick check: PBM binding z-score of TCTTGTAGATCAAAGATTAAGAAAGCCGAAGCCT ? -0.962

Entry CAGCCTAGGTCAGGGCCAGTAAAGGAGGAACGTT : reported PBM binding z-score = ? 0.361

Sample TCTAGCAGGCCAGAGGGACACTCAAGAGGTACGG — what was its PBM binding z-score? -0.905

Tell me the measured PBM binding z-score of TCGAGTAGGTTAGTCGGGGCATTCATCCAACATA , please. 0.047

Entry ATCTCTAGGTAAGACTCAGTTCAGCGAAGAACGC : reported PBM binding z-score = ? 0.802

Item under review: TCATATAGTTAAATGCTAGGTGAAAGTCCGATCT . Reported PBM binding z-score? 0.605

Given the sequence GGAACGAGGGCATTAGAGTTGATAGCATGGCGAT , what is its reported PBM binding z-score? -0.303

May I ask what PBM binding z-score has been recorded for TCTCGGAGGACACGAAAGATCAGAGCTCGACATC ? 0.159

Looking for the measured PBM binding z-score of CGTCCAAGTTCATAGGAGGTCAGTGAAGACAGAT , can you help? 1.52

Recorded PBM binding z-score of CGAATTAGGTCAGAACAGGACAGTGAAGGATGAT , please. 1.01

Entry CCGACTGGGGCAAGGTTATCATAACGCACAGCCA has what PBM binding z-score? 0.224

May I ask what PBM binding z-score has been recorded for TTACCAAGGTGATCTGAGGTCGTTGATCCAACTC ? 2.67

Find the recorded PBM binding z-score belonging to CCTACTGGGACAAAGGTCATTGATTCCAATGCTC and report it. 1.25

Tell me the measured PBM binding z-score of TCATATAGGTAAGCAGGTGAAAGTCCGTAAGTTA , please. 0.196

Field request: PBM binding z-score | item: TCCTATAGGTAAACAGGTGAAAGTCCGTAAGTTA 0.418

GET /values?readout=PBM binding z-score&item= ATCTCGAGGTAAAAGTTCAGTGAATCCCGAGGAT 0.159

Name the recorded PBM binding z-score for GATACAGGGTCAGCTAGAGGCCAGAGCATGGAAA . 0.132

Give the measured PBM binding z-score of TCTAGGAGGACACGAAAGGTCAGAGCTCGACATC . 1.4

Requested field: PBM binding z-score. Item: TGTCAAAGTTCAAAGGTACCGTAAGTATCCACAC -0.264

Param item = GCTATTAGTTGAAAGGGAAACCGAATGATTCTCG ; retrieve measured PBM binding z-score. -0.399

Tell me the measured PBM binding z-score of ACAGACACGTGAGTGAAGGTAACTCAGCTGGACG , please. -0.846

Would you mind telling me what PBM binding z-score value was observed for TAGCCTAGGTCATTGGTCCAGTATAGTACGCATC ? 1.47

----------
Tested on: PPARg homodimer (NR concentration 180 nM)
methodSummary: PBM binding z-score (relative to random genomic background probes); higher = stronger binding; sequences stand for … in GC…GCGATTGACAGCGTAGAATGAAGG
Hi all, reminder that labels come from PBM binding z-score, split as group A: < -0.02; group B: ≥ -0.02 and < 1; group C: ≥ 1

Form field 'band' for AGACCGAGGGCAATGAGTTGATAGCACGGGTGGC group A

Band of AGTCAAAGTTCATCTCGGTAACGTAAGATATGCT ? group C

Exam item: assign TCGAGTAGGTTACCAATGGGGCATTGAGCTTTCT to the correct category. group A

Which of the defined bands does the recorded PBM binding z-score of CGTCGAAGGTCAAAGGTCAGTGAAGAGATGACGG sit within? group C

Categorize the following entry: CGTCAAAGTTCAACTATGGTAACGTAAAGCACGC group C

Could you place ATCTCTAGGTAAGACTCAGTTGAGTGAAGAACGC in its proper category? Many thanks. group B

Band assignment needed for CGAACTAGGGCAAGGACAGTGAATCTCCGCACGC please. group A

Which PBM binding z-score category applies to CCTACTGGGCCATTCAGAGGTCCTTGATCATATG here? group B

Which bin should I file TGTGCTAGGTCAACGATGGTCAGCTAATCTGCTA under? group C

Kindly identify the class of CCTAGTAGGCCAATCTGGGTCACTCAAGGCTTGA . group B

----------
Tested on: VDR homodimer (NR concentration 270 nM)
methodSummary: PBM binding z-score (relative to random genomic background probes); higher = stronger binding; sequences stand for … in GC…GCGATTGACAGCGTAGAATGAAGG
measuredProperty: PBM binding z-score
Just the number.

Which PBM binding z-score is listed for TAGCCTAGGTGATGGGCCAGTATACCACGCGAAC ? -0.76

Looking for the measured PBM binding z-score of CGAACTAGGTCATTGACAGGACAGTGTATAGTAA , can you help? 1.47

What does the data say about its PBM binding z-score? Entry: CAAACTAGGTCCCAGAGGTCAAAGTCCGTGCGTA 3.87

What does the record list as PBM binding z-score for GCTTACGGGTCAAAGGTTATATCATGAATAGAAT ? 2.09

What measured PBM binding z-score goes with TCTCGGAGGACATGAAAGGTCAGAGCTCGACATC ? 0.768

Could you tell me which PBM binding z-score is on file for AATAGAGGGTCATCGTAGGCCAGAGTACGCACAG ? 2.55

Using the record for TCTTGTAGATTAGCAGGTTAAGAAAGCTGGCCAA , report its PBM binding z-score. -0.173

Fill in the blank: the reported PBM binding z-score of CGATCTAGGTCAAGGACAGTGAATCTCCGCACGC is ____. 0.43

Quick check: PBM binding z-score of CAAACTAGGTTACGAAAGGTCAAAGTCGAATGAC ? 2.58

Sample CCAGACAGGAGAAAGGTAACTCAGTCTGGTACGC — what was its PBM binding z-score? -0.102

Reported PBM binding z-score, sequence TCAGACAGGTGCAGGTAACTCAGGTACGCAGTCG : ____ 0.478

Could you share which PBM binding z-score value was measured for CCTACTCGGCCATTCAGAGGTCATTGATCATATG ? 4.02

Need PBM binding z-score, item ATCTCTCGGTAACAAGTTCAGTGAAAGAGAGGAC 2.29

# get_value(readout='PBM binding z-score', item= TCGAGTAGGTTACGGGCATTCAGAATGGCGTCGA ) -0.716

// PBM binding z-score lookup, key: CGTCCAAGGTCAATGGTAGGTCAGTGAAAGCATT 2.73

Need PBM binding z-score, item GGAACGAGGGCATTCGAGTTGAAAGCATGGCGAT 3.1
